studyTarget: HCV RNA dependent RNA polymerase (NS5B) (Hepatitis C virus genotype 1b)
Sequence (P26663 2420-3010): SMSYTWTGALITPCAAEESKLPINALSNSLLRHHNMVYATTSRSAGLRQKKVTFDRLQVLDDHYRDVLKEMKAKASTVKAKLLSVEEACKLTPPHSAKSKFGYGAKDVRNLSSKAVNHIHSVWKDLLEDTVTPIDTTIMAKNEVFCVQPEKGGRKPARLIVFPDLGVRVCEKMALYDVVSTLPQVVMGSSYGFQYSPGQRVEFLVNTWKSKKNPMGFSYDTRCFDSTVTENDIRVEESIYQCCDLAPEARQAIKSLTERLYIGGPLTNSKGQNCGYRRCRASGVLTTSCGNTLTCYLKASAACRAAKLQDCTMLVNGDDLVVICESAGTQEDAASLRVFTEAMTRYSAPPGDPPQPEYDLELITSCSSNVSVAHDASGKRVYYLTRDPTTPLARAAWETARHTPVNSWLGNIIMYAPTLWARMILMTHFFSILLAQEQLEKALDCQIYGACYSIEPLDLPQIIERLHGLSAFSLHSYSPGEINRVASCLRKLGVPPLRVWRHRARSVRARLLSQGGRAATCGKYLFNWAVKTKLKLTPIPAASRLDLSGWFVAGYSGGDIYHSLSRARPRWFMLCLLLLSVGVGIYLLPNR
assayDetails: In-vitro HCV NS5B enzyme inhibition assay
experimentalContext: NS5B enzyme 5 nM, 1 h at 22° C.
Method: i) In-vitro HCV NS5B Enzyme Inhibition Assay WO 96/37619 describes the production of recombinant HCV RdRp from insect cells infected with recombinant baculovirus encoding the enzyme. […] The reference describes a polymerisation assay using poly(A) and oligo(U) as a primer or an heteropolymeric template. Incorporation of tritiated UTP or NTPs is quantified by measuring acid-insoluble radioactivity. […] Incorporation of radioactive UMP was measured as follows. […]
Structures can show the parent of a compound that is named as a salt.
endpointLabel: IC50
For clarity, give the value followed by its unit.

Note IC50 for the compound shown: CN(CC1CCCCN1C)C(=O)Cn1c(-c2ccccc2)c(C2CCCCC2)c2ccc(C(=O)O)cc21 (stereo not shown) [Example 15, trifluoroacetate]
14 nM
